Measured values drawn from a collection of fitness landscapes (doi:10.1126/science.1257360) for this set.

B1: PhoQ; a variant is named by its letters at X, in order, P23837 (parent)
chain: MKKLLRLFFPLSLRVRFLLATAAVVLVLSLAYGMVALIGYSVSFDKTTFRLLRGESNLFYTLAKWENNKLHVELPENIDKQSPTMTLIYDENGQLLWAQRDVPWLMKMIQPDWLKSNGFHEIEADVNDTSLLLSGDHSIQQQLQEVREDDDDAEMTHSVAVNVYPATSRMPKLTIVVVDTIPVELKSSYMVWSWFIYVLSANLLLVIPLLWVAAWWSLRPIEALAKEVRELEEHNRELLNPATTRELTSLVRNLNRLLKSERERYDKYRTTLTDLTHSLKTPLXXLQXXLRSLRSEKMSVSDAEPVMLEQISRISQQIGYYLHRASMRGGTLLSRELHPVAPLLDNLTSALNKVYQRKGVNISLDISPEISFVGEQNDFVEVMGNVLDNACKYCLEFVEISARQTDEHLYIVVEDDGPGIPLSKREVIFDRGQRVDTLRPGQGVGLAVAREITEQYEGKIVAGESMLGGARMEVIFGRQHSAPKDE

# Variants of: B1
# METHOD_NOTES: enrichment ratio after two sorts for PhoP signalling (ratio (wild type AVST 3.29)); higher = more functional
# PROTOCOL_CONDITIONS: with PhoP (E. coli)
Over roughly 140,000 sequences, “enrichment ratio after two sorts for PhoP signalling” has its median near 0; the highest 2% begin near 11. The sample as a whole holds a higher share of the highest values than the screen did.
Property: enrichment ratio; scope: individual variants

// below: answered variants
MUTATION_STRING	MEASURED_ENDPOINT	RECORDED_MEASUREMENT
FQCG	enrichment ratio	1.7
TQGA	enrichment ratio	2.57
AILF	enrichment ratio	2.9
FHNP	enrichment ratio	≤ 0.25
YDIM	enrichment ratio	≤ 0.25

Qu. Which enrichment ratio value is on record for ADIM ?
Ans. ≤ 0.25

Qu. Which enrichment ratio value is on record for NIWL ?
Ans. ≤ 0.25

Qu. Which enrichment ratio value is on record for IYAV ?
Ans. ≤ 0.25

Qu. Which enrichment ratio value is on record for MDVN ?
Ans. ≤ 0.25

Qu. Which enrichment ratio value is on record for TQPI ?
Ans. ≤ 0.25

Qu. Which enrichment ratio value is on record for NPEC ?
Ans. ≤ 0.25
